# TARGET OR SYSTEM: T1, CXCR4 receptor (human, UniProt P61073 1-352)
# T1 construct: whole, on cells; Endogenous receptor on human cells
# T1 sequence (P61073 whole entry): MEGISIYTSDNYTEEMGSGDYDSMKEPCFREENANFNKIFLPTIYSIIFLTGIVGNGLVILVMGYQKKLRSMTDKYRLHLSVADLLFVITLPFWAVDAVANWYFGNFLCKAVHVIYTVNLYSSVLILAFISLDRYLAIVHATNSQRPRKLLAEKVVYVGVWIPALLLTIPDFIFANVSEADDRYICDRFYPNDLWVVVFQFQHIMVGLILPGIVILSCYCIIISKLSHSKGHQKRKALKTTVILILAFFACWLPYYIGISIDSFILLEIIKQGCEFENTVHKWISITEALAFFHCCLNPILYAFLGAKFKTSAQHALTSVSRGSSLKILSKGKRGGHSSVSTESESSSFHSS
# ASSAY DETAILS: displacement of 125I-CXCL12 from Jurkat cells, filter binding
Bridge positions count the residues as written; N and C are the ends. Square brackets hold non-standard residues; d marks the D form. 2Nal = N[C@@H](Cc1ccc2ccccc2c1)C(=O)O; dCit = NC(=O)NCCC[C@@H](N)C(=O)O; Cit = NC(=O)NCCC[C@H](N)C(=O)O
Kindly state pIC50 for each of the entries shown.
Units for pIC50: none; it is -log10 of a concentration expressed in mol/L.

(Q) # get_value(readout='pIC50', item= H-RR[2Nal]CY[Cit]K[dE]PYR[Cit]CR-NH2 (disulfide 4-13; also: acetate salt) [TE14011] )
(A) 8.54

(Q) Thanks! And {2‑fluorobenzoyl}-RR[2Nal]CY[Cit]K[dE]PYR[Cit]CR-NH2 (disulfide 4-13; also: acetate salt) [TF6] ?
(A) 8.41

(Q) Thanks! And H-RR[2Nal]CY[Cit]K[dK]PYR[Cit]CR-NH2 (disulfide 4-13; also: acetate salt, Tested as acetate salt) [TN14003] ?
(A) 8.59

(Q) Thanks! And H-RR[2Nal]CY[dE]K[dCit]PYR[Cit]CR-NH2 (disulfide 4-13 (inferred); also: acetate salt) [TE14012] ?
(A) 8.27

(Q) Thanks! And Ac-RR[2Nal]CY[Cit]K[dE]PYR[Cit]CR-NH2 (disulfide 4-13; also: acetate salt) [TF1] ?
(A) 7.96
